Test system: HOP-92
Assay: NCI tumour cell line growth inhibition, 48 h
Calls of active or inactive are those of the source. Cut-off read from the data, not from the text of the source: active = GI50 up to about 1.1 µM and inactive = higher.
recorded_metric: GI50

* c1ccc([P+](CCC[P+](c2ccccc2)(c2ccccc2)c2ccccc2)(c2ccccc2)c2ccccc2)cc1 | 20.1 µM (inactive)
* CNC(=O)N(CCC#N)CCN(C(=O)NC)c1ccccc1 | > 100 µM (inactive)
* CCOc1ccccc1NC(=O)CCc1nnc(S)[nH]1 | > 100 µM (inactive)

====

System: SW-620
Assay: NCI tumour cell line growth inhibition, 48 h
Calls of active or inactive are those of the source. Cut-off read from the data, not from the text of the source: active = GI50 up to about 1.1 µM and inactive = higher. Where a SMILES comes first, the peptide text is derived from it. [ ]: non-standard residue; d: D form. The star is where a group is joined. ξ: configuration not given here. X4 = COc1ccc(C(N*)c2ccc(OC)cc2)cc1; NMeF = CN[C@@H](Cc1ccccc1)C(=O)O; NMeD = CN[C@@H](CC(=O)O)C(=O)O; NMeV = CN[C@H](C(=O)O)C(C)C; ξNMeV = CNC(C(=O)O)C(C)C; Boc = CC(C)(C)OC(=O)*; ξNMeA = CNC(C)C(=O)O; ξV = CC(C)C(N)C(=O)O
Outcomes: YES for active, NO for inactive

• CCOC(=O)c1c(-c2ccc(OC)cc2)c(C#N)c(=S)n(C2OC(CO)C(O)C(O)C2O)c1-c1ccccc1 (centres undefined) = NO
• C=CCN(C(=O)OC(C)(C)C)[C@H](C)C(=O)N[C@@H](C)C(=O)OC = NO
• COc1ccc(C(NC(=O)C[C@@H](C(=O)N(C)C(C)C(=O)O)N(C)C(=O)[C@@H]2CCCN2C(=O)[C@H](C(C)C)N(C)C(=O)C(C(C)C)N(C)C(=O)[C@H](Cc2ccccc2)N(C)C(=O)C(NC(=O)OC(C)(C)C)C(C)C)c2ccc(OC)cc2)cc1 (some centres undefined) (Boc-[ξV][NMeF][ξNMeV][NMeV]P[NMeD](X4)[ξNMeA]-OH) = NO
• COc1cc(CC(C)N)ccc1O (centres undefined) = NO
• CC1=C(C)CC2(C=C(C(C)(C)C)C(=O)C(C(C)(C)C)=C2)SC1 = NO
• NC(CO)C(=O)NCC(=O)O (centres undefined) = NO
• O=[N+]([O-])C(=C/c1cccc2ccccc12)/C(=C\c1cccc2ccccc12)[N+](=O)[O-] = NO
• Cc1ccc(/C(Cl)=C/C=C(C#N)C#N)cc1 = NO
• COC(=O)c1cccc2c1Oc1ccccc1S2 = NO
• COc1cc([C@@H]2c3cc4c(cc3[C@@H](Nc3ccc(NC(=O)c5cc([N+](=O)[O-])cn5C)cc3)[C@H]3COC(=O)[C@H]23)OCO4)cc(OC)c1O = YES
• Nc1ccc(N)c2c1C(=O)c1ccccc1C2=O = NO
• Cn1c(=S)c2nc(SCCN3C(=O)c4ccccc4C3=O)[nH]c2n(C)c1=O = NO
• Oc1cc(-c2ccc(Oc3ccccc3)cc2)nc2cc3c(cc12)OCO3 = NO
• Cc1ccc(NC(=O)C2C(=O)N(c3ccc(C)c(C)c3)C(=O)/C2=N\NC(N)=O)cc1C (centres undefined) = NO
• COC(=O)CC(=O)OSc1ccccc1 = NO
• CC[C@@H]1CC[C@@H]2[C@H](CC[C@]3(C)[C@@H](OC(C)=O)CC[C@@H]23)[C@H]1COC(C)=O = NO
• Clc1ccc(Cc2nc3cc(Cl)c(Cl)cc3n2CC2CCCN3CCCCC23)cc1 (centres undefined) = NO
• CC12Oc3ccc4ccccc4c3C1c1c(ccc3ccccc13)O2 (centres undefined) = NO
• Cc1ccc2occ/c(=N\Nc3ccccc3)c2c1 = NO
• COC(=O)c1c[nH]cc1CCCCc1c[nH]cc1C(=O)OC = NO
• CC(C)(O)[C@@H]1CC[C@@]2(C)CCC[C@H](O)[C@H]2C1 = NO
• CC1CN(c2ccc(Cl)cc2)CC(C)(C)OC(=O)O1 (centres undefined) = NO
• CCOC(=O)C12CCC(=O)C=C1[C@@H](C)C(=O)CC2 (some centres undefined) = NO
• Cc1nc2c(n1-c1ccccc1)C(=O)c1ccccc1C2=O = NO

====

Reported values of GI50 for individual entries
Test system: CAKI-1
Assay: NCI tumour cell line growth inhibition, 48 h
Activity calls are given as the source filed them. Cut-off read from the data, not from the text of the source: active = GI50 up to about 1.1 µM and inactive = higher.
recorded_metric: GI50

- CSc1nncc2[nH]c(C)nc12: > 100 µM (inactive)
- CC(=O)c1ccc(NC(=O)/C(=N\NC(N)=O)C(C#N)CC(C)(C)C=O)cc1 (stereo not drawn): > 100 µM (inactive)
- CCCCC1=NNC(=O)C1: > 100 µM (inactive)

====

System: SN12C
Assay: NCI tumour cell line growth inhibition, 48 h
Active and inactive are the calls of the source. Cut-off read from the data, not from the text of the source: active = GI50 up to about 1.1 µM and inactive = higher. Square brackets hold non-standard residues; d marks the D form. Peptide text beside a SMILES is read from it. Ac5c = NC1(C(=O)O)CCCC1
Outcomes: active, inactive

- CC(=O)OCC1OC(N2C(=O)C(=O)c3cc(C)ccc32)C(OC(C)=O)C(OC(C)=O)C1OC(C)=O (stereo unspecified): inactive
- COC(=O)[C@]1(c2ccc(N(C)C)cc2OC)C[C@@H]2CCCN(CCc3c1[nH]c1ccccc31)C2: inactive
- Cn1c(=S)c2nc(SCCN3C(=O)c4ccccc4C3=O)[nH]c2n(C)c1=O: inactive
- CS/C1=C(\c2ccc(C)cc2)N(c2ccccc2)C(=O)C(=O)N(c2ccccc2)/C(c2ccc(C)cc2)=C(/SC)SS1: inactive
- NCC(=O)NC1(C(=O)O)CCCC1 (H-Gly-[Ac5c]-OH): inactive
- CSc1c(C#N)c(=O)n(N)c2[nH]nc(C)c12: inactive
- N=S(c1ccccc1[N+](=O)[O-])c1ccccc1[N+](=O)[O-]: active
- CSc1nncc2[nH]c(C)nc12: inactive
- CCCC(C(=O)Nc1cccc2nc[nH]c12)C(=O)OCC (stereo unspecified): inactive
- C[N+](C)(C)CC1CCC/C1=N\OC(=O)c1ccccc1 (stereo unspecified): inactive
- CC[C@@]12CCC(=S)N(CCSc3ccccc3)[C@@H]1c1c(n(S(=O)(=O)c3ccc(OC)cc3)c3ccccc13)CC2: inactive
- Cc1nc(-c2nc(C)c(C(=O)/C=C/c3ccc([N+](=O)[O-])cc3)s2)sc1C(=O)/C=C/c1ccc([N+](=O)[O-])cc1: inactive
- CN1CCCOC(c2ccc([N+](=O)[O-])cc2)O1 (stereo unspecified): inactive
- CC(C)(C)c1nc2c(o1)/C(=N\c1ccc(F)cc1)c1ccccc1C2=O: inactive
- Cn1c(NNc2ccccc2)cc(=O)[nH]c1=O: inactive
- C/C(=N\Nc1nc2ccccc2[nH]1)c1ccncn1: active

====

Test system: RXF 631
Experiment: NCI tumour cell line growth inhibition, 48 h
Calls of active or inactive are those of the source. No stated cut-off is given here; in the data, active = GI50 up to about 1.1 µM and inactive = higher.
recorded_metric: GI50

• CCO/C(CCn1[nH]c(=O)c(Cl)c(Cl)c1=O)=N\NC(=O)C(=O)NN = > 100 µM (inactive)
• O=C(c1ccco1)c1ccccc1C(=O)c1ccco1 = > 100 µM (inactive)
• CC(C)(c1ccccc1)c1ccc(Oc2ccc(C#N)c(C#N)c2)cc1 = > 10 µM (inactive)
• CC1CN(c2ccc(Cl)cc2)CC(C)(C)OC(=O)O1 (stereo unspecified) = > 100 µM (inactive)
• O=c1c2cc([N+](=O)[O-])ccc2sc2ccsc12 = > 100 µM (inactive)
• Nc1ncnc2c1ncn2C1C=C(CO)C(O)C1O (stereo unspecified) = 12.6 µM (inactive)

====

System: IGROV-1
Assay: NCI tumour cell line growth inhibition, 48 h
Activity calls are given as the source filed them. No stated cut-off is given here; in the data, active = GI50 up to about 1.1 µM and inactive = higher.
Outcomes: active, inactive

* CC1SC2(CCCCC2)N(NC(=O)CSc2nc3ccc(Cl)cc3c(=O)n2-c2ccccc2)C1=O (stereo not drawn) | inactive
* Cc1cn(CC2=NCC(C)(C)N2)c(=O)[nH]c1=O | inactive
* O=c1c2cccnc2[nH]c2ccc3cn[nH]c3c12 | inactive
* COC(=O)c1ccc(NCc2cc(O)ccc2O)cc1O | inactive
* O=C(O)CC(O)(C(=O)O)C(O)C(=O)O (stereo not drawn) | inactive
* O=C1Sc2ccccc2C(=O)N2CCSC12 (stereo not drawn) | inactive
* CC1=NN(C(=O)c2ccccc2O)C(=O)/C1=C/c1ccc([N+](=O)[O-])cc1 | active
* COc1ccc2c(c1)CCc1c-2[nH]c2ccc(OC)cc12 | inactive
* COc1cc(CC(C)N)ccc1O (stereo not drawn) | inactive
* O=C1NC(Cc2ccc(O)cc2)C(=O)NC1Cc1ccc(O)cc1 (stereo not drawn) | inactive
* CCOC(=O)C(Cc1ccc([N+](=O)[O-])cc1)NC(=O)CC1c2ccccc2-c2ccccc21 (stereo not drawn) | inactive
* Cn1c(NNc2ccccc2)cc(=O)[nH]c1=O | inactive
* CC1(C)OC2C(O)CN3CCS[C@H]3C2O1 (stereo partly drawn) | inactive
* CCOC(=O)[N-]c1ccc(S(=O)(=O)[O+](C)CCl)cc1.CCOC(=O)[N-]c1ccc(S(=O)(=O)[O+](C)CCl)cc1.NC(=O)N=O.NC(=O)OCCCl | inactive
* CS/C1=C(\c2ccc(C)cc2)N(c2ccccc2)C(=O)C(=O)N(c2ccccc2)/C(c2ccc(C)cc2)=C(/SC)SS1 | inactive
* Cc1cc(O)c(C(=O)CC2(O)C(=O)Nc3c(Cl)cc(Cl)cc32)c(=O)o1 (stereo not drawn) | inactive
* CCOC(=O)C1N(S(=O)(=O)c2ccc(C)cc2)CCC12C(c1ccc(OC)cc1)NC1CCCCC12 (stereo not drawn) | inactive
* COC(=O)c1ccccc1C1CN=NC12Cc1c(C)c3c(c(C)c1C2=O)CCC3 (stereo not drawn) | inactive
